- Tgt: T1, EGFR Fc (human, UniProt P00533 25-645)
- T1 construct: also called EGFR-hFc; recombinant human EGFR-Fc
- Protocol: ELISA, EGFR Fc coated, VHH at 50 nM
Property Label: OD450
Give bare numbers.

Consider the following illustrative entries.
pgEG-SX40 (VHH, not shown: small tags and cut ends) VHH: QVQLVESGGGLVQAGGSLRLSCTGSGIRFSFYTLGWYRQAPGKQRELVAEIYSSDNAKYEDSVKGRFAISRDNAKNSVSLQMNSLKPEDTAVYYCNVRATDYWGPGTQVTVSS    0.786
pgEG-SX22 (VHH, not shown: small tags and cut ends) VHH: QVQLVESGGGLVQAGGSLRVSCAVSGGALSAYAMAWFRQAPGKEREFVAGLNWGGDETYYADSAKGRFTISKDNAKNTVSLQMNSLEPEDTAVYYCGGRPGPLLSRATGYKYWGQGTQVTVSS    1.78
pgEG-SX3 (VHH, not shown: small tags and cut ends) VHH: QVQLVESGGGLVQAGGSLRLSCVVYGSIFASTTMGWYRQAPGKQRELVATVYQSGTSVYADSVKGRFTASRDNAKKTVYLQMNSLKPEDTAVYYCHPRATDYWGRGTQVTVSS    1.21

Now for the binder whose OD450 we want.
Give its OD450 value. Item: pgEG-SX9 (VHH, not shown: small tags and cut ends) VHH: QVQLVESGGGLVQAGGSLRLSCAASVSGSALSNMAWYRQRPGNQRELVAHITFDNFTNYADSVKGRFTISRDNVKNTVDLQMSSLKPEDTAVYYCNARHFFGDNYWGKGTLVTVSS
2.28
